What viability, T/C was measured for each of the following?
- Test system: 922993-354-T-J3-PDC complex spheroids, viability;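 also: spheroids exposed to compounds for seven days; 100% = DMSO vehicle control viability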
- experiment: Anticancer human tumor 922993-354-T-J3-PDC patient-derived endometrial carcinoma cell line growth inhibition [GQUAD]
- condition context: second compound 1 µM; first compound 0.316 µM; stronger effect = lower value
Numbers only, in %.

Some solved entries appear below for comparison.
CC1COCCN1c1cc(C2(O)CC3CCC(C2)O3)c2cnn(-c3ccn[nH]3)c2n1 (stereo not drawn) + Cc1[nH]c2ccc(F)cc2c1-c1nc2c3cccnc3c3ncccc3c2[nH]1: 52.9
CC[C@@]1(O)C(=O)OCc2c1cc1n(c2=O)Cc2cc3c(CN(C)C)c(O)ccc3nc2-1 + Cc1[nH]c2ccc(F)cc2c1-c1nc2c3cccnc3c3ncccc3c2[nH]1: 48.7

Here is another molecule to look at.
Per the reported 922993-354-T-J3-PDC complex spheroids, viability data, Nc1ccn(C2OC(CO)C(O)C2(F)F)c(=O)n1 (stereo not drawn) + Cc1cnc(CNC(=O)c2c(=O)c3ccc(N4CCCN(C)CC4)nc3n3c2sc2ccccc23)cn1 has viability, T/C of 54.8
